meta.source: patent US20210078988A1

Biological target: indoleamine 2, 3-dioxygenase (IDO1) (Homo sapiens)
Construct: human peripheral blood mononuclear cells (PBMC) (PB003F; host or cells: human PBMC stimulated with IFN-gamma and LPS
Sequence (P14902 whole entry): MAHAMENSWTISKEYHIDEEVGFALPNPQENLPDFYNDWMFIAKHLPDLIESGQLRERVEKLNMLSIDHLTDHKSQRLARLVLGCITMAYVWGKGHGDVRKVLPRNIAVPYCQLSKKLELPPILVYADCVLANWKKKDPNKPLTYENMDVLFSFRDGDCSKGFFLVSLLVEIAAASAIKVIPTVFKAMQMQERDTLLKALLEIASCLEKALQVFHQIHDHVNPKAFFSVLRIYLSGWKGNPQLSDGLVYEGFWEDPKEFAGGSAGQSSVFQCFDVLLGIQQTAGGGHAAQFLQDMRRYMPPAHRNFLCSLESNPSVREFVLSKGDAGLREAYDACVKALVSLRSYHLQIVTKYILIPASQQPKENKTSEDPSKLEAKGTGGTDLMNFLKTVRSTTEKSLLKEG
Assay: PBMC IDO1 assay (kynurenine detection via mass spectrometry)
Type: cell-based
Conditions: human PBMC stimulated with IFN-γ and LPS, 2 days, kynurenine by mass spectrometry; read-out: IDO1 PBMC pIC50 (converted)
Description: Compounds of the present invention were tested via high-throughput cellular assays utilizing detection of kynurenine via mass spectrometry and cytotoxicity as end-points. […] Cellular toxicity due to the effect of compound treatment was measured using CellTiter-Glo® reagent (CTG) (Promega Corporation, Madison, Wis.), which is based on luminescent detection of ATP, an indicator of metabolically active cells. […]
parameter: IC50

[[record]]
molecule = "COc1ccc([C@H](CC2CCN(C(=O)Oc3ccccc3)CC2)NC(=O)c2ccc(Cl)cc2)cn1"
parameter = "IC50"
observedmeasurement = "2.51 nM"

[[record]]
molecule = "COc1ccc([C@H](CC2CCN(C(=O)CC(C)(C)C)CC2)NC(=O)c2ccc(Cl)s2)cn1"
parameter = "IC50"
observedmeasurement = "5.01 nM"

[[record]]
molecule = "CC(C)Oc1ccc(C(CC2CCN(C(=O)OC(C)(C)C)CC2)NC(=O)c2ccc(F)cc2)cn1 (centres unmarked)"
parameter = "IC50"
observedmeasurement = "79.4 nM"

[[record]]
molecule = "CCc1ccc(C(=O)NC(CC(C)C)CC2CCN(C(=O)OC(C)(C)C)CC2)s1 (centres unmarked)"
parameter = "IC50"
observedmeasurement = "12.6 nM"

[[record]]
molecule = "CC(C)NC(=O)N1CCC(CC(NC(=O)c2ccc(Cl)cc2)c2ccccc2)CC1 (centres unmarked)"
parameter = "IC50"
observedmeasurement = "158 nM"

[[record]]
molecule = "CC(C)(C)OC(=O)N1CCC(CC(NC(=O)c2ccc(Br)s2)C2CCCCC2)CC1 (centres unmarked)"
parameter = "IC50"
observedmeasurement = "7.94 nM"

[[record]]
molecule = "CN(Cc1ccccc1)c1nnc(C(CC2CCN(C(=O)OC(C)(C)C)CC2)NC(=O)c2ccc(Cl)s2)o1 (centres unmarked)"
parameter = "IC50"
observedmeasurement = "63.1 nM"

[[record]]
molecule = "CC(C)(C)OC(=O)N1CCC(C[C@@H](NC(=O)c2ccc(Cl)s2)C2CC2)CC1"
parameter = "IC50"
observedmeasurement = "398 nM"

